# System: KM12
# measurement-protocol: NCI tumour cell line growth inhibition, 48 h
Active and inactive are the calls of the source. Rule as the data show it: active = GI50 up to about 1.1 µM and inactive = higher.
assay-endpoint: GI50

Examples from the recorded data:
>  <compound>
O=c1c2cccc3cccc(c4oc5c6cccc7cccc(c(=O)c5c14)c76)c32

>  <tested-system>
KM12

>  <GI50>
13.8 µM (inactive)

$$$$
>  <compound>
COc1cccc(-c2cc(C(=O)Nc3ccc(Cl)cc3)nc(N)n2)c1

>  <tested-system>
KM12

>  <GI50>
43.7 µM (inactive)

$$$$
>  <compound>
CN(C)CCCSc1c2ccccc2nc2cc(NCC(=O)Nc3ccccc3-c3ccccc3NC(=O)CNc3ccc4c(SCCCN(C)C)c5ccccc5nc4c3)ccc12

>  <tested-system>
KM12

>  <GI50>
84.3 µM (inactive)

$$$$
>  <compound>
CSCCC(NC(=O)Cc1ccc(C(=O)c2ccccc2)cc1)C(=O)O (centres undefined)

>  <tested-system>
KM12

>  <GI50>
> 100 µM (inactive)

$$$$

Please give GI50, item by item, for the list that follows.
1. CC1=C(C(=O)CC(=O)C(=O)Nc2ccccc2)Sc2ccccc2N1
2. Cc1ccc(NC(=O)CC/C(CC(=O)C(C)(C)C)=N/NC(=O)C[N+](C)(C)C)cc1C
3. N=c1c2ccccc2nc2oc3cc([N+](=O)[O-])ccc3n12
4. Cc1cc(-c2ccc(/N=N/c3ccc4c(S(=O)(=O)O)cc(S(=O)(=O)O)c(N)c4c3O)c(C)c2)ccc1/N=N/c1ccc2c(S(=O)(=O)O)cc(S(=O)(=O)O)c(N)c2c1O
5. CC(C)CN1CN(c2ccccc2)C2(CCN(CC(C)(c3ccc(F)cc3)C3OCCO3)CC2)C1=O (centres undefined)

Reply |
> 100 µM (inactive)
> 100 µM (inactive)
> 100 µM (inactive)
> 100 µM (inactive)
3.72 µM (inactive)

----------
# Tested on: SK-MEL-2
# measurement-protocol: NCI tumour cell line growth inhibition, 48 h
Activity calls are given as the source filed them. Rule as the data show it: active = GI50 up to about 1.1 µM and inactive = higher.
Can you tell me GI50 for the items I'm about to list?

>  <compound>
Cc1nc2c(=O)n(C)ncc2[nH]1

>  <assay-endpoint>
GI50

>  <value-reported>
> 100 µM (inactive)

$$$$
>  <compound>
O=[N+]([O-])/C(C(Cl)=C(Cl)Cl)=C(\N1CCCCC1)n1cncn1

>  <assay-endpoint>
GI50

>  <value-reported>
18 µM (inactive)

$$$$

Please give GI50, item by item, for the list that follows.
1. CCC(=O)c1ccc2[nH]c3c(C)c4c(O)cc(C)nc4c(C)c3c2c1
2. CCN(CC)C(=O)COc1cc2c(O)c3c(O)c(C)c4c(c13)C(=O)C(C)(OC=CC(OC)C(C)C(OC(C)=O)C(C)C(O)C(C)C(O)C(C)C=CC=C(C)C(=O)N2)O4 (centres undefined)
3. CCOc1ccncc1[N+](=O)[O-]
4. CC(C)(C)n1nc(C2CC2)cc1NC(=O)Nc1ccc(Cl)cc1
5. OCC(O)C(O)C(O)c1nn(-c2ccccc2)c2nc3cc(Cl)c(Cl)cc3nc12 (centres undefined)
6. c1ccc2c(c1)CCCc1cc3ccccc3nc1-2

Reply |
["> 100 µM (inactive)", "> 100 µM (inactive)", "> 100 µM (inactive)", "> 100 µM (inactive)", "33 µM (inactive)", "> 100 µM (inactive)"]

Ask | # value lookup — system SK-MEL-2, readout GI50, item `CC(=O)O[C@H]1CC[C@@]2(C)[C@@H](CC[C@@H]3[C@@H]2CC(=O)[C@@]2(C)[C@H]3C[C@@H]3CC(C)=CC(=O)[C@@H]32)C1`
Reply | > 100 µM (inactive)

Origin of values: ChEMBL document CHEMBL1201862
